# study_target: EGFR tyrosine kinase (Homo sapiens, UniProt P00533)
# Construct: Recombinant intracellular fragments of EGFR, erbB2 and erbB4; made in house; host or cells: baculovirus/Sf21 insect cells (cleared lysate used)
# Sequence (P00533 669-1210 limits assumed): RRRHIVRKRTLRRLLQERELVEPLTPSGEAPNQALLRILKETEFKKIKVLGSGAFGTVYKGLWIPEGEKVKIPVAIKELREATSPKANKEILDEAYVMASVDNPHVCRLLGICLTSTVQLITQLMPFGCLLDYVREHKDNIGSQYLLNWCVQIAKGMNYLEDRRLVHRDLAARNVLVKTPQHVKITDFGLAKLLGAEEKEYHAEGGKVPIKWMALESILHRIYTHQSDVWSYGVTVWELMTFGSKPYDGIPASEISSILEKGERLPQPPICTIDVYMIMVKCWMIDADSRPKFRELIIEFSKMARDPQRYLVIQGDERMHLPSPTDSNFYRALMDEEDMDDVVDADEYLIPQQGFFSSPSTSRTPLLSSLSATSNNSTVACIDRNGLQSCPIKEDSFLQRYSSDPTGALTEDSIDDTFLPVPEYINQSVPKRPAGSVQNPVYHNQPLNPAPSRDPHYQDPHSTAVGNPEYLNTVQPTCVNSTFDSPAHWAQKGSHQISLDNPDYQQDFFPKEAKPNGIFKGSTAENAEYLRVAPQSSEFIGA
# method: Protein tyrosine kinase phosphorylation assay, Test (a), EGFR
# Type: biochemical
# experimental_setup: recombinant intracellular fragment, ATP at Km concentration; read-out: IC50 (μM) Test (a): Inhibition of EGFR tyrosine kinase protein phosphorylation

record_smiles: C[C@H](Oc1cccc2ncnc(Nc3ccc(OCc4ccccn4)c(Cl)c3)c12)C(=O)N1CCC[C@H]1CO
IC50 (µM): 0.135
--
record_smiles: C[C@@H](Oc1cccc2ncnc(Nc3ccc(OCc4ccccn4)c(Cl)c3)c12)C(=O)N(C)C
IC50 (µM): 0.072
--
record_smiles: CC(C)(Oc1cccc2ncnc(Nc3ccc(OCc4ccccn4)c(Cl)c3)c12)C(N)=O
IC50 (µM): 24.8
--
record_smiles: Cc1ccc(Oc2ccc(Nc3ncnc4cccc(OCC(=O)NCCO)c34)cc2C)cn1
IC50 (µM): 1.47

* * *

# study_target: erbB2 in a MCF7 derived cell line (Clone 24 cells) (Homo sapiens)
# Construct: a cell line that overexpresses full length wild type erbB2 protein; expressed in transfected cells; host or cells: MCF7 (breast carcinoma) cells stably transfected, 'Clone 24'
# Sequence (P04626 23-1255): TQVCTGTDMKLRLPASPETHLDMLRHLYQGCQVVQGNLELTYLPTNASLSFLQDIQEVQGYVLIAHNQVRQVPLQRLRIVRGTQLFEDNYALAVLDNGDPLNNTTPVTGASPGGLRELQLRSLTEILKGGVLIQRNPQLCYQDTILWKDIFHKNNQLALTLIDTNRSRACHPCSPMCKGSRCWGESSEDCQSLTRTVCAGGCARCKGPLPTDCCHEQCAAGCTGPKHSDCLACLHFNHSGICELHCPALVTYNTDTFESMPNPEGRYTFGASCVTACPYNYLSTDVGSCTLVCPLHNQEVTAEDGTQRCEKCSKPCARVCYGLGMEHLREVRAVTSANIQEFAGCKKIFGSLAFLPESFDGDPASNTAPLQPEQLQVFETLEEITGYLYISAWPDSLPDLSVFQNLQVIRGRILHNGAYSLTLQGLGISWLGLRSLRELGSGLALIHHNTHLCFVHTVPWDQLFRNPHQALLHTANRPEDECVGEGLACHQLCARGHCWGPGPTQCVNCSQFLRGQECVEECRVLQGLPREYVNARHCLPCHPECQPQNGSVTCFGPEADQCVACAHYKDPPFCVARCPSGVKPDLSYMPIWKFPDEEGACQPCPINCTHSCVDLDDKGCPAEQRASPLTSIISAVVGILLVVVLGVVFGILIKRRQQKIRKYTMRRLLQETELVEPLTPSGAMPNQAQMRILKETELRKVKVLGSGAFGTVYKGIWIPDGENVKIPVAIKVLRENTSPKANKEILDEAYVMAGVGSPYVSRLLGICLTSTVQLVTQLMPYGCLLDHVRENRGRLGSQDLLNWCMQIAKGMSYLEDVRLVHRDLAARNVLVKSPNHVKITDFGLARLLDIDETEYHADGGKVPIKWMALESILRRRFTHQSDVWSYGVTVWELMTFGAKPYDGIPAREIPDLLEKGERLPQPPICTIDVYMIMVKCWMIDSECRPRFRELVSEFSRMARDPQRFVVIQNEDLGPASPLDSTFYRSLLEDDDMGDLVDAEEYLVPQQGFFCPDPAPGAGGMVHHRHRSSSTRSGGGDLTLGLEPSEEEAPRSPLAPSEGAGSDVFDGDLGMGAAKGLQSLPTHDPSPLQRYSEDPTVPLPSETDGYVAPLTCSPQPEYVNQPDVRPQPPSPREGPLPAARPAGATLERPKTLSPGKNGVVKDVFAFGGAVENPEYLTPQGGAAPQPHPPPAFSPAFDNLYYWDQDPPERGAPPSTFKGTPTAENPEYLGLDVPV
# method: Clone 24 phospho-erbB2 cell assay, Test (d)
# Assay type: cell-based
# experimental_setup: phosphorylation of erbB2 in a MCF7 derived cell line; read-out: IC50 (μM) Test (e): Inhibition of erbB2 tyrosine kinase protein phosphorylation
Each entry below carries its reported IC50.

record_smiles: Cc1ccc(Oc2ccc(Nc3ncnc4cccc(OCC(=O)NCCO)c34)cc2C)cn1
study_target: erbB2 in a MCF7 derived cell line (Clone 24 cells) (Homo sapiens)
readout_unit: µM
IC50: 0.019

record_smiles: CC(C)(Oc1cccc2ncnc(Nc3ccc(OCc4ccccn4)c(Cl)c3)c12)C(N)=O
study_target: erbB2 in a MCF7 derived cell line (Clone 24 cells) (Homo sapiens)
readout_unit: µM
IC50: 0.002

record_smiles: C[C@@H](Oc1cccc2ncnc(Nc3ccc(OCc4ccccn4)c(Cl)c3)c12)C(=O)N(C)C
study_target: erbB2 in a MCF7 derived cell line (Clone 24 cells) (Homo sapiens)
readout_unit: µM
IC50: 0.001

record_smiles: C[C@H](Oc1cccc2ncnc(Nc3ccc(OCc4ccccn4)c(Cl)c3)c12)C(=O)N1CCC[C@H]1CO
study_target: erbB2 in a MCF7 derived cell line (Clone 24 cells) (Homo sapiens)
readout_unit: µM
IC50: 0.001

* * *

Each entry below carries its reported IC50.
# study_target: erbB2 tyrosine kinase (Homo sapiens, UniProt P04626)
# Construct: Recombinant intracellular fragments of EGFR, erbB2 and erbB4; made in house; host or cells: baculovirus/Sf21 insect cells (cleared lysate used)
# method: Protein tyrosine kinase phosphorylation assay, Test (a), erbB2
# Assay type: biochemical
# experimental_setup: recombinant intracellular fragment, ATP at Km concentration; read-out: IC50 (μM) Test (a): Inhibition of erbB2 tyrosine kinase protein phosphorylation

molecule: C[C@H](Oc1cccc2ncnc(Nc3ccc(OCc4ccccn4)c(Cl)c3)c12)C(=O)N1CCC[C@H]1CO [Example 34]
IC50: 0.002 µM

molecule: CC(C)(Oc1cccc2ncnc(Nc3ccc(OCc4ccccn4)c(Cl)c3)c12)C(N)=O [Example 42]
IC50: 0.012 µM

molecule: Cc1ccc(Oc2ccc(Nc3ncnc4cccc(OCC(=O)NCCO)c34)cc2C)cn1 [Example 52]
IC50: 0.002 µM

molecule: C[C@@H](Oc1cccc2ncnc(Nc3ccc(OCc4ccccn4)c(Cl)c3)c12)C(=O)N(C)C [Example 21]
IC50: 0.002 µM

The values you see were collected from patent US20070232607A1.
